Just for reference, the array DNA melting data of Ke et al. (doi:10.1101/2024.01.08.574731) is where these values come from.

Here, each record is paired with measured Tm data.
Assay: melting temperature; fluorescence melt of hairpins on a sequencing array, two-state fit, raised by 9.35 °C to match UV melts
Settings: sodium 0.088 M

SEQUENCE RECORD	Tm
GCTGGCGAAAGCCTAAGC ((((((....)))..)))	51.5 °C
GGGGTTACGAAAGTACCC (((..(((....))))))	51.4 °C
GGCCACGCGAAAGCGGCC (((..(((....))))))	62.5 °C
GATCAAATTTTTGATC ((((((....))))))	47.7 °C
GATCCGGAATCGGATC ((((((....))))))	62 °C
GCCTGGCGAAAGCTTGGC (((..((....))..)))	59.4 °C
GCAGTGGGAAACCGCTGC ((((.((....)).))))	62.1 °C
GATCCTGGCCAGGATC ((((((....))))))	61.3 °C
GATCTCCCAGGAGATC ((((((....))))))	56.8 °C
GCCGAAGGAAACTCCGGC ((((.((....)).))))	48.3 °C
CGATATCGGAAACGATCG (((..(((....))))))	35.3 °C
GCAAACCCGAAAGGGTGC (((..(((....))))))	51.7 °C
GGTCACGAAAGTGGCACC ((((((....)))..)))	47.6 °C
GTTTACGGAAACGTAAAC (((((((....)))))))	57.5 °C
GATCGTTTCGACGATC ((((((....))))))	57.7 °C
GCTCGGCCGAAAGGCAGC (((..(((....))))))	55.6 °C
GAATAACGAAAGTTGTTC (((.(((....))).)))	45.5 °C
GCCCTAGAAATAGGGC ((((((....))))))	59.1 °C
GATCAGTATCTGATC ((((((...))))))	48.5 °C
GACCCTGGAAACAGGATC ((.((((....)))).))	37.6 °C
GAATCGCGAAAGCGGTTC (((.(((....))).)))	61.7 °C
GGTTAAGGAAACCTAACC (((((.(....).)))))	35.2 °C
GAGTACCGAAAGGTGCTC (((.(((....))).)))	60.6 °C
CGCGACCGGAAACGGGCG (((..(((....))))))	60 °C
GGACTCCCGAAAGGGTCC (((..(((....))))))	45.3 °C
